Assay notes: folding stability dG unfold from trypsin proteolysis; higher = more stable
Task for the reader: assign each of the following sequences its reported folding stability dG unfold.
Please respond with the number in kcal/mol and leave the unit unwritten.

folding stability dG unfold recorded for this sequence, SAGGSAGGSAGGSSYQLKLEAEFLVGDSSGKLYKVKLTITVNEDGSISIDLEVLSVFDVSAGGSAGGSAGGS [r4_496_TrMRF] , is 4.16

folding stability dG unfold recorded for this sequence, SAGGSAGGRVRIHYNPEDGYIMITFPRNNPEEIAKEILEAFNIKDVNIQVDPEEGWVSIMIKIDSAGGSAGG [r6_662_TrROS] , is 2.95

folding stability dG unfold recorded for this sequence, SAGGSAGGSAGMPEKVTLTFERSSEVFDPKLGKWRTLPSTEVVEFDSEEEAEELKEKLGLSAGGSAGGSAGG [r11_984_JUSTAS] , is -0.506

folding stability dG unfold recorded for this sequence, SSPANITTTTTSSPLNLETFDPKTGKKKRINYTLTTETVTFPGGEVVTTTVLKDASTGKVTTLSTTVTPTSA [r9_402_JUSTAS] , is 0.773

folding stability dG unfold recorded for this sequence, PLTFPALVRNPLEDRWEEVTVTLHPDGTLTVTHRGRPLASVRVVTRPPPEVELVPVRDADGVERLGLRTRGS [r1_496_TrMRF] , is 0.346

folding stability dG unfold recorded for this sequence, SMKVERERRTIERTLPDGRKVKVEIDLFRPEDGKPWALIKITVTDENGVPTEREILAPAELAEKVIEELFSA [r9_189_TrMRF] , is 2.34

folding stability dG unfold recorded for this sequence, PPPDVPVETETKTSTSTLPDGSRLTTTTTTTRAPNGYYYDTTSVTTTVAPDGTVTTTSTSTTKGPLPAALLS [r1_129_JUSTAS] , is 1.81

folding stability dG unfold recorded for this sequence, SAGGMLDLSDVEVLNTVPIGGGNYLVLLKVPKLGKVVVVPASDLKKLKENVPNVKISFTPVAPSESGSAGGS [r16_61_TrMRF] , is 0.601

folding stability dG unfold recorded for this sequence, SAGGSAGGSAWGWISFNFEFLMFNPDGMFMPFRMQIDIRVEVKPEPKPKPKPKRDPNGKWKSAGGSAGGSAG [r3_252_TrROS] , is 1.91

folding stability dG unfold recorded for this sequence, SAGGSAGGSMYIVNIKFYNPKTGKVLYIPIKTKKEKAEEIAKELAKKLPEIKYIKAEIKPDISSAGGSAGGS [r12_757_TrMRF] , is 1.21

folding stability dG unfold recorded for this sequence, SAGGSAGGSAGGPRMTVVDLDPEKGDHLYLVEIPDTNEVVLVSSSELLRLAEAGPVELKGSAGGSAGGSAGG [r7_452_TrMRF] , is -0.107

folding stability dG unfold recorded for this sequence, SMTPEEVKALAEELAERLKEEGYEVEVKVTVEEVDGEKYVTIEIEVRRPDGSTETFRLVIREDGSIEIYPSA [r9_1027_TrROS_Hall] , is 3.49

folding stability dG unfold recorded for this sequence, SAGGSAGGSAGGDNTKTLVLVIKVDENVTPEEIKKKLKDLGFKNVKIEKVGNYAVVTVSSAGGSAGGSAGGS [r10_868_TrMRF] , is 2.58

folding stability dG unfold recorded for this sequence, SAGGSSMYKTTTTPLSTFPVRDENGNFLEETKFEKTTVTYPDGSTVTVLKIEVGGKTFTLEVTPTPSAGGSA [r2_158_JUSTAS] , is 0.0145
